Target: NADPH oxidase 4 (Homo sapiens)
Assay: NOX4-dependent H2O2 signal modulators, primary screen, NOX inhibitor project, cell-based, HEK293-NOX4, tetracycline-induced, Amplex Red fluorescence (AID 1160)
Details: 45 min, higher = more signal, called active from +8 up or from −8 down
Binning scheme for z-score: label 0 (below -0.4), label 1 (-0.4 to below 0.4), label 2 (0.4 or more)

{"columns": ["compound", "class-label"],
 "data": [
  ["C=CCOC(=O)[C@H]1[C@@H]2C(=O)O[C@@H](c3ccccc3)[C@@H](c3ccccc3)N2[C@@H](c2ccc(OCCOC(=O)[C@H]3C[C@H]4C(=O)N[C@@H](CCCCNC(C)=O)C(=O)N4[C@H]3c3cccc(OCCO)c3)cc2)[C@]12C(=O)Nc1ccc(I)cc12", "label 2"],
  ["NC(=O)N1C(=O)C2C(C1=O)C1C=C(CCCO)C2C(C2CC2)N1Cc1cccc(OC(F)(F)F)c1 (centres undefined)", "label 0"],
  ["CN1C=C(C(=O)OCCS(C)(=O)=O)C(C(=O)OCCS(C)(=O)=O)=CC(c2ccc(CO)cc2)=CC1c1cccs1 (centres undefined)", "label 0"],
  ["C=CCC(OC(C)=O)[C@@H]1[C@@H](N(Cc2ccc(-c3cccc(C(F)(F)F)c3)o2)C(=O)Cc2ccc(OC)cc2)c2cc(OCCCO)ccc2N1C(=O)Cc1ccc2ccccc2c1 (some centres undefined)", "label 0"],
  ["COC(=O)[C@@]1(Cc2ccccc2)[C@H]2c3cc(C(=O)N4CCCC4)n(CCSCCO)c3C[C@H]2CN1C(=O)c1ccccc1", "label 0"],
  ["CN1C(=O)C2C=CC(C(O)c3ccc(F)cc3)N(NC(=O)OC(C)(C)C)C2C1=O (centres undefined)", "label 0"],
  ["CN1C(=O)C2C=CC(C(O)c3ccc(I)cc3)N(Nc3ccccc3)C2C1=O (centres undefined)", "label 0"],
  ["C=C[C@@H](OC)[C@H](OC(=O)Nc1ccc(SC)cc1)c1ccc(OCCO)cc1", "label 1"],
  ["O=C1OCCC=C[C@H]2OC34C=CCN(c5ccc(Cl)cc5)C(=O)[C@H]3N(CCCCCCO)C(=O)[C@@H]4C12 (some centres undefined)", "label 1"],
  ["C#C[C@@H](CC)O[Si](C#CCCCC#N)(C(C)C)C(C)C", "label 1"],
  ["CN1C(=O)C2C=CC(C(O)c3cc(C(F)(F)F)cc(C(F)(F)F)c3)N(NC(=O)OC(C)(C)C)C2C1=O (centres undefined)", "label 0"],
  ["O=C1[C@@H]2[C@@H](CC(COc3ccccc3)=C3[C@@H](CCc4ccccc4)OB(O)C[C@@H]32)C(=O)N1Cc1ccccc1", "label 1"],
  ["COc1ccc(C(=O)Nc2cccc(CN3C(=O)[C@]4(O[C@H](CCn5cc([C@H](O)c6ccccc6)nn5)[C@@H]([Si](C)(C)c5ccc(OC)cc5)[C@@H]4C)c4ccccc43)c2)cc1", "label 1"],
  ["CCOC(=O)C[C@H]1[C@H](OC(=O)c2ccc(-c3ccccc3)cc2)[C@@H](NC(=O)Cc2ccc(OC)cc2)c2cc(OCCCO)ccc2N1C(=O)Cc1ccc(OC)cc1", "label 0"],
  ["COC(=O)[C@@]1(Cc2ccccc2)[C@H]2c3cc(C(=O)N(C)C)n(CCn4cc([N+](=O)[O-])nc4C)c3C[C@H]2CN1C(=O)c1ccccc1", "label 2"],
  ["O=C1O[C@H](c2ccccc2)[C@H](c2ccccc2)N2[C@H]1[C@@H](C(=O)N1CCCCCCC1)[C@]1(C(=O)Nc3ccc(C#CC4(O)CCCCCC4)cc31)[C@H]2c1ccc(O)cc1", "label 2"],
  ["CCOC(=O)C1=CCC(c2ccccc2)N(S(=O)(=O)c2ccc([N+](=O)[O-])cc2)C1 (centres undefined)", "label 1"],
  ["CCCCCN1CC=CC23O[C@@H]4C=CCOC(=O)[C@@H]4[C@H]2C(=O)N(CCO)[C@@H]3C1=O (some centres undefined)", "label 2"],
  ["O=C1C2C=CC(C(O)c3ccc4c(c3)OCO4)N(Nc3ccccc3)C2C(=O)N1c1ccccc1 (centres undefined)", "label 2"],
  ["O=C1N(CCS(=O)(=O)c2ccccc2)Cc2ccccc2[C@@H]2OC(c3ccc(OCCCO)cc3)=N[C@]12CCS(=O)(=O)c1ccccc1", "label 2"],
  ["NC(=O)NCC#Cc1ccc2c(c1)[C@]1(C(=O)N2)[C@H](C(=O)N2CCN(c3ncccn3)CC2)[C@H]2C(=O)O[C@H](c3ccccc3)[C@H](c3ccccc3)N2[C@@H]1c1ccc(OCCO)cc1", "label 2"],
  ["[N-]=[N+]=Nc1ccccc1C[C@]1(C(=O)O)N=C(c2ccc(OCCCO)cc2)O[C@H]1c1ccccc1N=[N+]=[N-]", "label 2"],
  ["O=C(NCCN1CCOCC1)[C@@H]1c2ccccc2C(=O)N(Cc2ccccc2)[C@H]1c1ccc(CO)cc1", "label 0"],
  ["CC(C)C[C@@H]1NC(=O)[C@@]23C(=O)N[C@@H](Cc4ccccc4)C2[C@H](C)[C@@]2(C)O[C@H]2C3/C=C/C/C=C\\CNC(=O)[C@@H](C)NC1=O (some centres undefined)", "label 2"],
  ["C=C[C@@H](OC)[C@H](OC(=O)Nc1ccc(OC)cc1)c1ccc(OC)c(O)c1", "label 0"],
  ["CC(C)=CCCC(C)=CC(O)C1C=CC2C(=O)N(c3ccccc3)C(=O)C2N1Nc1ccccc1F (centres undefined)", "label 1"],
  ["CC(C)C(=C=CC[C@H](O)c1cccc(OCCO)c1)CCO", "label 1"]
]}
